tgt: Hck (UniProt P08631)
Sequence (P08631 whole entry, looked up): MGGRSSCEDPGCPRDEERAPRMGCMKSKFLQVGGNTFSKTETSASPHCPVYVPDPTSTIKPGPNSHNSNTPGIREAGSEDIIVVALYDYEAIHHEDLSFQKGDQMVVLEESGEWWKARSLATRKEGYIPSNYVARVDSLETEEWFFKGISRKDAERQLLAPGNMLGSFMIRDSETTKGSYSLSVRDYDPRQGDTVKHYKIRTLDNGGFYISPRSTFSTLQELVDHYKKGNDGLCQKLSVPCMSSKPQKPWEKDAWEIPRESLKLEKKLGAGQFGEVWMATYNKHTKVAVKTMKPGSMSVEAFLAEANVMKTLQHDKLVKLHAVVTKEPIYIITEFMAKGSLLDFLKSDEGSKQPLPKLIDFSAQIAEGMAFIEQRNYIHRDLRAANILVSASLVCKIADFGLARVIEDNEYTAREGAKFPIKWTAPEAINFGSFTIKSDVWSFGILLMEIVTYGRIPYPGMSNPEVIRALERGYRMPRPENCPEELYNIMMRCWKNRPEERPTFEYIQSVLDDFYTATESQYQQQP
protocol notes: phosphorylation enrichment, bacterial display (enrichment ratio); higher = better substrate or ligand; peptides without Tyr show the background
measured attribute: phosphorylation enrichment
Please state the value as a number alone, without comment.

## Task Specify phosphorylation enrichment for FGISGYVVDSV [MAP2K3_Y214_L215V] and stop.
## Result 0.49

## Task Fill in phosphorylation enrichment for record LTMAPYSSVSV [FAM81A_Y24_L29V]
## Result 0.724

## Task Look up phosphorylation enrichment of AVAFVYFKSIG [ADGRL4_Y301_YF] and report it.
## Result 0.626

## Task For the sequence CPYNLYAEQFS [HGD_Y40_L44F] , give its reported phosphorylation enrichment.
## Result 3

* * *

Tested on: AncSZ
protocol notes: phosphorylation enrichment, bacterial display (enrichment ratio); higher = better substrate or ligand; peptides without Tyr show the background
Each entry gets Not fulfilled if its phosphorylation enrichment stays under 1, and Fulfilled if its phosphorylation enrichment is 1 or above.

## Task Given KYLENYLNRLL [PLD2_Y169] , state whether its phosphorylation enrichment is at least 1.
## Result Not fulfilled

## Task Can FDAHIYEGCVI [PRKCD_Y64_R67C] be said to have phosphorylation enrichment at or above 1?
## Result Fulfilled

## Task Please tell me: is the sequence IGEGTYGVVYK [CDK2_Y15] at or over 1 in terms of phosphorylation enrichment?
## Result Not fulfilled

## Task Quick check, phosphorylation enrichment >= 1? LGEGSYGKVKE [STK11_Y60]
## Result Fulfilled

## Task Check this sequence for phosphorylation enrichment at or above 1: TRHDEYLEVTK [MAP1A_Y2217]
## Result Not fulfilled

## Task Quick check, phosphorylation enrichment >= 1? PGDGEYFTLQI [TP53_Y327_L323G]
## Result Fulfilled

## Task Determine whether this sequence has phosphorylation enrichment no lower than 1: NFYEYYVDDPP [GCHFR_Y48]
## Result Fulfilled

## Task Item ELANLYHHVCM [BICD2_Y538] with phosphorylation enrichment of 1 or above?
## Result Fulfilled

## Task Exam item: decide whether the reported phosphorylation enrichment for RAEAQYLLVSN [LRIG1_Y1054] is at least 1.
## Result Not fulfilled

## Task In plain terms: is recorded phosphorylation enrichment at least 1 for CSDPSYVKQME [CDC5L_Y464_Y459C] ?
## Result Fulfilled

## Task Would you say SISLRYEGRVF [ABL1_Y167_YF] shows phosphorylation enrichment at minimum 1?
## Result Fulfilled

## Task Form field: phosphorylation enrichment at least 1? Entry: NHYKIYNPCAE [PTEN_Y68_L70P]
## Result Not fulfilled

## Task Please indicate if the recorded phosphorylation enrichment for WLQKLYNNFVN [MYO5C_Y526] meets or exceeds 1.
## Result Fulfilled

* * *

Test system: AncSZ
protocol notes: phosphorylation enrichment, bacterial display (enrichment ratio); higher = better substrate or ligand; peptides without Tyr show the background
Exercise: for every item that follows, state its recorded phosphorylation enrichment.
API note: the answer field is a bare number with no unit suffix.

## Task For the sequence YSQNIYIQNRN [PKP2_Y631] , give its measured phosphorylation enrichment value.
## Result 0.804

## Task Return phosphorylation enrichment (reported value) for this sequence: NDQPDYDSVAS [GIT2_Y392]
## Result 1.3

## Task Give the measured phosphorylation enrichment for ARGTRYRYVSQ [UCN3_Y95]
## Result 0.534

## Task Please look at this sequence and report its phosphorylation enrichment: LSRDVYEEDSY [RET_Y900]
## Result 1.39

## Task Note phosphorylation enrichment for the sequence shown: RGKDSYETSKL [SPP1_Y225_Q229K]
## Result 1.26

## Task Identify the reported phosphorylation enrichment for the following entry. KVVQEYERVII [NPHS2_Y131]
## Result 1.09

## Task Please supply the value of reported phosphorylation enrichment for the item CGPLLYGLVHQ [PRKCG_Y122_S119P]
## Result 0.884

## Task In one line, give reported phosphorylation enrichment of the entry PELIDYGKLWK [ACTN1_Y193_R197W] .
## Result 1.31

## Task Input TVFSDYLHPQY [CCPG1_Y569] , output reported phosphorylation enrichment.
## Result 2.34

## Task Read the entry VNNTVYGIDAM [EIF3J_Y143_A141T] and write its reported phosphorylation enrichment.
## Result 0.724

## Task Look up and report measured phosphorylation enrichment for this entry: LFIGQYSGKKE [L1CAM_Y1229_S1224L]
## Result 1.41

## Task Query phosphorylation enrichment for VDTFWYKFLKP [EPM2A_Y86_R91P]
## Result 0.982

## Task Hello, please tell me recorded phosphorylation enrichment for this one: VTAALYGCLFE [BTD_Y536_R538C_YF]
## Result 1.3

## Task For the sequence GLDSSYLLRDS [SH2D1A_Y29_G27S] , report phosphorylation enrichment.
## Result 0.477

## Task Give recorded phosphorylation enrichment. AIIGIYNLRDD [CDH23_Y2949_I2950N]
## Result 0.821

## Task Quick one: give measured phosphorylation enrichment for YCRITYDIFPF [INTS13_Y67_M66T]
## Result 1.8

## Task Please give the documented phosphorylation enrichment of GRLVEYDIDEV [SMS_Y134]
## Result 1.28

## Task Return the recorded phosphorylation enrichment value; entry: RRVLVYRGRGA [QDPR_Y16_G17R]
## Result 0.963

## Task Please indicate phosphorylation enrichment recorded for IGEVVYQRAAM [GRIN2A_Y502_V506A]
## Result 0.841

## Task Could you please provide reported phosphorylation enrichment for LFLACYCIGGG [UBD_Y161] ? Thanks!
## Result 1.22

## Task Quick one: give measured phosphorylation enrichment for DIDKIYVRTGI [PIK3CA_Y355]
## Result 0.975

## Task Give the reported phosphorylation enrichment for this sequence. NHFKRYNLCAE [PTEN_Y68_I67R_YF]
## Result 0.638

## Task Provide phosphorylation enrichment value for the following sequence: SNKLTYGTMVF [ACOX1_Y275]
## Result 0.773

## Task Give a short answer stating reported phosphorylation enrichment for WIPIQCPIISE [NOG_Y222_Y222C] .
## Result 1.31

* * *

tgt: SHP2-C SH2
protocol notes: SH2 binding enrichment of the phosphorylated peptide, bacterial display (enrichment ratio); higher = better substrate or ligand; peptides without Tyr show the background
measured attribute: SH2 binding enrichment
Form rule: numeric answer, no unit written next to it.

## Task Enter recorded SH2 binding enrichment with SHP2-C SH2 for SDGKRYRVPSD [HHIPL2_Y395_H391D] here.
## Result 0.608

## Task Give measured SH2 binding enrichment for RGKDSYETSKL [SPP1_Y225_Q229K] (SHP2-C SH2).
## Result 0.581

## Task Fill in SH2 binding enrichment for CTTIHYDFMCN [TP53_Y234_N235D_YF] tested with SHP2-C SH2.
## Result 2.73

## Task Provide SH2 binding enrichment, recorded with SHP2-C SH2, of GARGRYIMGGP [TNK1_Y277_V278I]
## Result 0.674

## Task Report SH2 binding enrichment on SHP2-C SH2 for this entry: GKSFTYAAFHA [KCNT1_Y563]
## Result 0.527

## Task Name the recorded SH2 binding enrichment of VDTRAYLTSAT [MT-CO1_Y304_F305L] , assay system SHP2-C SH2.
## Result 0.569

## Task State the measured SH2 binding enrichment (SHP2-C SH2) of DHYNQYEQQKM [CHD7_Y75]
## Result 0.824

## Task # lookup: SHP2-C SH2 SH2 binding enrichment, key = GQKVAYGGTED [ALDH3A1_Y305_G309E]
## Result 0.549

## Task Retrieve SH2 binding enrichment on SHP2-C SH2; query RAEAQYLLVSN [LRIG1_Y1054]
## Result 0.62

## Task For SHP2-C SH2, give SH2 binding enrichment of the listed sequence: RGGWAYVLHPT [TRMT61A_Y67_V66A]
## Result 0.654

## Task // output SH2 binding enrichment; input TVFSDYLHPQY [CCPG1_Y569] ; system SHP2-C SH2
## Result 0.76

## Task State measured SH2 binding enrichment of the sequence KILGRYYETSS [PAX2_Y72_G76S] with SHP2-C SH2.
## Result 0.726

## Task Report the value of SH2 binding enrichment obtained on SHP2-C SH2 for IDQDKYAVRFI [FLNA_Y2388] .
## Result 0.696

## Task # lookup: SHP2-C SH2 SH2 binding enrichment, key = NHFKRYNLCAE [PTEN_Y68_I67R_YF]
## Result 0.618

## Task Given DLDLTYIYPNI [PTEN_Y27] , report its SH2 binding enrichment on SHP2-C SH2.
## Result 0.962

## Task Provide SHP2-C SH2 SH2 binding enrichment reading for GFEEAYSVFKK [PAFAH1B1_Y28_YF] .
## Result 1.76

## Task Given YPIDHYLGKEM [G6PD_Y202_R198P] , report its SH2 binding enrichment on SHP2-C SH2.
## Result 0.576

## Task State recorded SH2 binding enrichment with SHP2-C SH2, entry SVGVPYEPPEV [TP53_Y220_V217G] , no comment.
## Result 0.861

## Task Report measured SH2 binding enrichment on SHP2-C SH2; entry: RLLVVYSWTQR [HBB_Y36_P37S]
## Result 1.21

## Task GET SH2 binding enrichment | system: SHP2-C SH2 | item: LIEQAYDNPHE [PRPF8_Y871]
## Result 0.729

## Task Under SHP2-C SH2: report SH2 binding enrichment of YEPDAYDDLDQ [ELP5_Y302] .
## Result 0.764

## Task Please report the measured SH2 binding enrichment for EKNANYKEGTF [CLRN1_Y171_I168N_YF] tested on SHP2-C SH2.
## Result 0.874

## Task Lab note: SHP2-C SH2 assay, enter SH2 binding enrichment for TIQIMYGCDVG [HLA-A_Y123] here
## Result 0.75

## Task GET SH2 binding enrichment where system = SHP2-C SH2 and item = GADDSYFTARS [ZAP70_Y492_YF]
## Result 0.566

## Task State, for SHP2-C SH2, measured SH2 binding enrichment of the sequence listed here: IGEGTYGVVYK [CDK2_Y15]
## Result 0.535

## Task Return reported SH2 binding enrichment for target or system SHP2-C SH2, item SLRAHYDTPRS [DOK7_Y405] .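 Note: peptide library displayed on the E. coli surface as eCPX fusions, selected cells deep-sequenced, score is each peptide's frequency after selection divided by its frequency in the input.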
## Result 0.914

## Task Retrieve SH2 binding enrichment on SHP2-C SH2; query PELIDYGKLWK [ACTN1_Y193_R197W]
## Result 0.989

## Task With SHP2-C SH2 as the test system, provide measured SH2 binding enrichment for this sequence: AIDDKYSRREE [SART1_Y685]
## Result 0.968

## Task Identify measured SH2 binding enrichment obtained with SHP2-C SH2 for LSVEIYDRREF [ITGB7_Y753_YF] .
## Result 0.648

## Task Give SH2 binding enrichment for this entry on SHP2-C SH2: WRRLIYRCQVG [NR2E3_Y81_R76W]
## Result 0.561
